test.target: human TLR8 (Homo sapiens, UniProt Q9NR97)
Sequence (Q9NR97 27-1041): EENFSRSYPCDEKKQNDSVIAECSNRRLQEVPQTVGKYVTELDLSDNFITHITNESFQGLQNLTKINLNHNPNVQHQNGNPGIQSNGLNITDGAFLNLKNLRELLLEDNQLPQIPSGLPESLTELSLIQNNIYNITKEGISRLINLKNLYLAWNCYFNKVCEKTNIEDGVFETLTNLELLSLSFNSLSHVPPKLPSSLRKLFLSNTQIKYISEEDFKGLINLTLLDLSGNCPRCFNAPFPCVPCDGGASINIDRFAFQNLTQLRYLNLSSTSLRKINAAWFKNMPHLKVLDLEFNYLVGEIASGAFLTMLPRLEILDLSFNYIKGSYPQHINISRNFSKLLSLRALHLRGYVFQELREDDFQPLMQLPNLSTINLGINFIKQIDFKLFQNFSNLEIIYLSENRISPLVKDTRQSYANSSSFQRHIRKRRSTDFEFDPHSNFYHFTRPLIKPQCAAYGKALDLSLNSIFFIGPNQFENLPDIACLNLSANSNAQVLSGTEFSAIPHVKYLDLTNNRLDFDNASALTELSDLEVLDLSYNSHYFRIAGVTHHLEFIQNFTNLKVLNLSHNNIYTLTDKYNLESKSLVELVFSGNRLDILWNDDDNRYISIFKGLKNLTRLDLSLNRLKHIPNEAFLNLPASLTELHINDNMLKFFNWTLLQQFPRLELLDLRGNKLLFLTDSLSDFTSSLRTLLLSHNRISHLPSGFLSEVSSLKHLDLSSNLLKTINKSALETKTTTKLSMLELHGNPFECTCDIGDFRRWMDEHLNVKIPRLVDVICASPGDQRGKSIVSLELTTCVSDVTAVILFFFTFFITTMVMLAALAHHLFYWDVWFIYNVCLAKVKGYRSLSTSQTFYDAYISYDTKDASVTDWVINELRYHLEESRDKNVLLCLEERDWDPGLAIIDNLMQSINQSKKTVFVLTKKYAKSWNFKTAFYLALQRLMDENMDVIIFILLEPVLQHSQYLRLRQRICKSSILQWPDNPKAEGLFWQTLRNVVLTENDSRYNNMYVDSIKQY
measurement.notes: HEK293-Blue-hTLR-8 cells assay (SEAP reporter, R848 stimulation)
run.conditions: HEK293-Blue-hTLR8 cells, R848, 20 hrs
pIC50: −log10 of the molar value.
measurement.label: pIC50

molecule	pIC50
C[C@@H]1CN(c2ccc(Cl)c3ncccc23)C[C@H](C(=O)N[C@H]2CNC[C@H]2F)O1 [Example 22]	7.72
C[C@@H]1CN(c2ccc(C(F)(F)F)c3ncccc23)C[C@H](C(=O)NC2CC3CNCC(C3)C2)O1 (stereo partly shown) [Example 37]	8.22

[1] C[C@@H]1CN(c2ccc(C(F)(F)F)c3ncccc23)C[C@H](C(=O)N2CCC(N)C2)O1 (stereo partly shown) [Example 10]
[2] C[C@@H]1CN(c2ccc(C(F)(F)F)c3ncccc23)C[C@H](C(=O)N2CCC(N)CC2)O1 [Example 12]
[3] C[C@@H]1CN(c2ccc(C(F)(F)F)c3ncccc23)C[C@H](C(=O)N[C@H]2CNC[C@H]2F)O1 (single isomer, unassigned) [Example 2B]
[ask] Sort the 3 molecules by pIC50; largest first, smallest last. # the answer lists labels in the order requested
[reply] 2, 3, 1

meta.source: patent US20220363665A1
